molecular target: KRAS (G12C)::SOS1 (Homo sapiens (Human), UniProt P01116, C118S/C51S/C80L/G12C); assay: KRAS::SOS1 AlphaScreen binding assay, KRAS G12C
Sequence (P01116 other isoform, or with tags, fused parts or gaps G12C/C51S/C80L/C118S): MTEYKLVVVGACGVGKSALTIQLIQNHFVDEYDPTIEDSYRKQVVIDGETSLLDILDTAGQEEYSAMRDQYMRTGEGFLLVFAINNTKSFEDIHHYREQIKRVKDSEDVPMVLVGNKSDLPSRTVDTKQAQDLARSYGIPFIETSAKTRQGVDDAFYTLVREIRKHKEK
Give pIC50 for every item shown.
# pIC50: negative log10 of molar concentration; output just the value

Looking for the measured pIC50 of C[C@H](Oc1cc(-c2ccn3ncnc3c2)nc(-c2onc3c2CCC[C@@]32CCCc3sc(N)c(C#N)c32)n1)[C@@H]1CCCN1C [I-33] , can you help? 8.70

Quick one: CO[C@H]1CCN(C)[C@@H]1[C@H](C)Oc1cc(-n2ccc(C(=O)N[C@@H]3CCOC3)n2)nc(-c2onc3c2CCC[C@@]32CCCc3sc(N)c(C#N)c32)n1 [I-53] 9.00

Quick one: C[C@H](Oc1cc(N2CC[C@H](N(C)C)C2)nc(-c2onc3c2CCC[C@@]32CCCc3sc(N)c(C#N)c32)n1)[C@@H]1CCCN1C [I-11] 8.15

Quick one: C[C@H](Oc1cc(N2CCNC3(CCCC3)C2)nc(-c2noc3c2CCC[C@@]32CCCc3sc(N)c(C#N)c32)n1)[C@@H]1CCCN1C [II-41] 8.05

Quick one: C[C@H](Oc1cc(-c2ccn3ncnc3c2)nc(-c2noc3c2CCC[C@@]32CCCc3sc(N)c(C#N)c32)n1)[C@@H]1CCCN1C [II-104] 8.70

Quick one: COCCNC(=O)c1ccn(-c2cc(O[C@@H](C)[C@@H]3[C@@H](OC)CCN3C)nc(-c3onc4c3CCC[C@@]43CCCc4sc(N)c(C#N)c43)n2)n1 [I-55] 9.00

====

system: SAS cells; assay: SAS CTG proliferation assay (120 h) (HNSCC, wt amplified); type: cell-based
VALUE_KIND: IC50 (nM)
Your answer should be a plain number; it is taken to be in nM.

Looking for the measured IC50 of "C[C@H](Oc1cc(N2CCC[C@H](O)C2)nc(-c2noc3c2CCC[C@@]32CCCc3sc(N)c(C#N)c32)n1)[C@@H]1CCCN1C" , can you help? 54

Quick one: "C[C@H](Oc1cc(-n2ccc(-c3cn([C@H]4CCOC4)nn3)n2)nc(-c2noc3c2CCC[C@@]32CCCc3sc(N)c(C#N)c32)n1)[C@@H]1CCCN1C" 19

Quick one: "C[C@H](Oc1cc(N2CC(N(C)C)C2)nc(-c2noc3c2CCC[C@@]32CCCc3sc(N)c(C#N)c32)n1)[C@@H]1CCCN1C" 1190

Quick one: "C[C@H](Oc1cc(N2C[C@@H](N(C)C)[C@@H](F)C2)nc(-c2noc3c2CCC[C@@]32CCCc3sc(N)c(C#N)c32)n1)[C@@H]1CCCN1C" 1320

Quick one: "C[C@H](Oc1cc(N2CCNC[C@]23CCOC3)nc(-c2onc3c2CCC[C@@]32CCCc3sc(N)c(C#N)c32)n1)[C@@H]1CCCN1C" 218

Quick one: "C[C@H](Oc1cc(N2CCNC3(COC3)C2)nc(-c2noc3c2CCC[C@@]32CCCc3sc(N)c(C#N)c32)n1)[C@@H]1C[C@@H](F)CN1C" 91

Quick one: "Cc1ccc(-c2cc(O[C@@H](C)[C@@H]3CCCN3C)nc(-c3onc4c3CCC[C@@]43CCCc4sc(N)c(C#N)c43)n2)cn1" 934

Quick one: "C[C@H](Oc1cc(N2CC3CCC(C2)N3)nc(-c2noc3c2CCC[C@@]32CCCc3sc(N)c(C#N)c32)n1)[C@@H]1CCCN1C" 1950

Quick one: "C[C@H](Oc1cc(-n2ccc(-c3cn(C4CCOCC4)nn3)n2)nc(-c2noc3c2CCC[C@@]32CCCc3sc(N)c(C#N)c32)n1)[C@@H]1CCCN1C" 14

Quick one: "COCCNC(=O)c1ccn(-c2cc(O[C@@H](C)[C@@H]3CCCN3C)nc(-c3noc4c3CCC[C@@]43CCCc4sc(N)c(C#N)c43)n2)n1" 37

Quick one: "CC(=O)N1CC=C(c2cc(O[C@@H](C)[C@@H]3CCCN3C)nc(-c3noc4c3CCC[C@@]43CCCc4sc(N)c(C#N)c43)n2)CC1" 51

Quick one: "CO[C@H]1CCN(C)[C@@H]1[C@H](C)Oc1cc(-n2ccc(C(=O)N(C)C3COC3)n2)nc(-c2noc3c2CCC[C@@]32CCCc3sc(N)c(C#N)c32)n1" 17

====

test system: KRAS G12V-dependent Ba/F3 cells; experiment: Ba/F3 proliferation assay, KRAS G12V; type: cell-based; details: Mus musculus, BaF3, 72 h, AlamarBlue;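 further: proliferation IC50 in KRAS G12V-dependent Ba/F3 cells read by AlamarBlue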
VALUE_KIND: IC50 (nM)
Your answer should be a plain number; it is taken to be in nM.

Looking for the measured IC50 of "C[C@H](Oc1cc(-c2ccn(C[C@H]3CCOC3)n2)nc(-c2noc3c2CCC[C@@]32CCCc3sc(N)c(C#N)c32)n1)[C@@H]1CCCN1C" , can you help? 9

Quick one: "C[C@H](Oc1cc(N2CCNC3(COC3)C2)nc(-c2onc3c2CCC[C@@]32CCCc3sc(N)c(C#N)c32)n1)[C@@H]1CCCN1C" 134

Quick one: "C[C@H](Oc1nc(-c2noc3c2CCC[C@@]32CCCc3sc(N)c(C#N)c32)nc(N2CCNC3(CC3)C2)c1Cl)[C@@H]1C[C@@H](F)CN1C" 271

Quick one: "C[C@H](Oc1cc(-c2ccn(C3COC3)n2)nc(-c2onc3c2CCC[C@@]32CCCc3sc(N)c(C#N)c32)n1)[C@@H]1CCCN1C" 14

Quick one: "CO[C@@H]1C[C@@H]([C@H](C)Oc2cc(-c3ccn(C)n3)nc(-c3onc4c3CCC[C@@]43CCCc4sc(N)c(C#N)c43)n2)N(C)C1" 7

Quick one: "C[C@H](Oc1cc(-n2cc3c(n2)CCNC3)nc(-c2noc3c2CCC[C@@]32CCCc3sc(N)c(C#N)c32)n1)[C@@H]1CCCN1C" 285

====

test system: KRAS G12V-dependent Ba/F3 cells; assay: Ba/F3 proliferation assay, KRAS G12V; format: cell-based; details: Mus musculus, BaF3, 72 h, AlamarBlue;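 further: proliferation IC50 in KRAS G12V-dependent Ba/F3 cells read by AlamarBlue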
pIC50: −log10 of the molar value.
Entry flag: MET if pIC50 reaches 8; NOT MET if it does not.

Test whether the molecule "C[C@H](Oc1cc(N2C[C@H](C)NC3(CC3)C2)nc(-c2onc3c2CCC[C@@]32CCCc3sc(N)c(C#N)c32)n1)[C@@H]1CCCN1C" records pIC50 of 8 or higher. NOT MET

Quick one: "C[C@H](Oc1cc(N2CCN(C)C3(COC3)C2)nc(-c2noc3c2CCC[C@@]32CCCc3sc(N)c(C#N)c32)n1)[C@@H]1CCCN1C" NOT MET

Quick one: "C[C@H](Oc1cc(-c2ccn(C3COC3)n2)nc(-c2noc3c2CCC[C@@]32CCCc3sc(N)c(C#N)c32)n1)[C@@H]1CCCN1C" NOT MET

Quick one: "COCCNC(=O)c1ccn(-c2cc(O[C@@H](C)[C@@H]3CCCN3C)nc(-c3noc4c3CCC[C@@]43CCCc4sc(N)c(C#N)c43)n2)n1" MET

Quick one: "CO[C@@H]1C[C@@H]([C@H](C)Oc2cc(N3CCN(C)C4(CC4)C3)nc(-c3noc4c3CCC[C@@]43CCCc4sc(N)c(C#N)c43)n2)N(C)C1" NOT MET

Quick one: "Cc1cn(-c2cc(O[C@@H](C)[C@@H]3CCCN3C)nc(-c3noc4c3CCC[C@@]43CCCc4sc(N)c(C#N)c43)n2)nn1" NOT MET

====

tested on: KRAS G12C-dependent Ba/F3 cells; assay: Ba/F3 proliferation assay, KRAS G12C; type: cell-based; settings: Mus musculus, BaF3, 72 h, AlamarBlue
pIC50: −log10 of the molar value.
Entry flag: Criterion met if pIC50 reaches 7; Criterion not met if it does not.

Test whether the compound "C[C@H](Oc1cc(N2CC[C@H](N(C)C)C2)nc(-c2noc3c2CCC[C@@]32CCCc3sc(N)c(C#N)c32)n1)[C@@H]1C[C@@H](F)CN1C" records pIC50 of 7 or higher. Criterion not met

Quick one: "C[C@H](Oc1cc(-n2nccn2)nc(-c2onc3c2CCC[C@@]32CCCc3sc(N)c(C#N)c32)n1)[C@@H]1CCCN1C" Criterion met

Quick one: "C[C@H](Oc1cc(-c2ccncc2)nc(-c2noc3c2CCC[C@@]32CCCc3sc(N)c(C#N)c32)n1)[C@@H]1CCCN1C" Criterion met

Quick one: "C[C@H](Oc1cc(-c2ccn([C@H]3CCOC3)n2)nc(-c2noc3c2CCC[C@@]32CCCc3sc(N)c(C#N)c32)n1)[C@@H]1CCCN1C" Criterion met

Quick one: "C[C@H](Oc1cc(N2CCNC(C)(C)C2)nc(-c2noc3c2CCC[C@@]32CCCc3sc(N)c(C#N)c32)n1)[C@@H]1CCCN1C" Criterion not met

Quick one: "C[C@H](Oc1cc(N2CCNC[C@@]23CCOC3)nc(-c2onc3c2CCC[C@@]32CCCc3sc(N)c(C#N)c32)n1)[C@@H]1CCCN1C" Criterion not met

Quick one: "C[C@H](Oc1cc(N2CCN(C)CC2)nc(-c2noc3c2CCC[C@@]32CCCc3sc(N)c(C#N)c32)n1)[C@@H]1CCCN1C" Criterion not met

Quick one: C[C@H](Oc1cc(N2CCN3CCC3C2)nc(-c2onc3c2CCC[C@@]32CCCc3sc(N)c(C#N)c32)n1)[C@@H]1CCCN1C (stereo partly shown) Criterion not met

Quick one: "C[C@H](Oc1cc(N2CC3COCC(C2)N3)nc(-c2noc3c2CCC[C@@]32CCCc3sc(N)c(C#N)c32)n1)[C@@H]1CCCN1C" Criterion not met

Quick one: "C[C@H](Oc1cc(N2CC[C@H](N(C)C)C2)nc(-c2onc3c2CCC[C@@]32CCCc3sc(N)c(C#N)c32)n1)[C@@H]1CCCN1C" Criterion not met

Quick one: "CN[C@H]1CCN(c2cc(O[C@@H](C)[C@@H]3CCCN3C)nc(-c3noc4c3CCC[C@@]43CCCc4sc(N)c(C#N)c43)n2)C1" Criterion not met
